The origin of these recorded values is the supplement of paper PMC9170038.

- System: K4 kissing-loop RNA reporter;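 also: bound reporter read as fluorescence of individual clusters on recovered sequencing chips by microscopy, with normalized cluster intensities fitted with a binding model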
- Test protocol: apparent KD of K4 kissing-loop reporter; higher = weaker reporter binding
- Condition info: Eterna round: R107; input ligand: FMN 200 uM
So basically: apparent KD of K4 kissing-loop reporter at 300 nM or higher? That is Met. Lower than 300 nM? That is Not met.

// known answers, use as guide
{"Seq": "AGGCAAUAUGCGGCCGCCACUUUCAGUGAUGUUGAGACGCGGAAUGUUGUAUAAUAUCGCCACGAAAGGACCGGGCAAGGGAAAG [theeternabot_exclusion_KL_Trp_B_5]", "Label": "Met"}
{"Seq": "GAAAGGAGUGAUGUUCCUGAUAAUUUUAUGAAGGAUAUUCGAUGUGGAAGAAGGUCAUGCAGGCAGCAAGGUUGCGAUCAUAUCA [theeternabot_exclusion_KL_FMN_A_40]", "Label": "Not met"}
{"Seq": "GGGUUGAACUGAAGGAGCGAGAAAUAGAAAGUAAGAAGAUAAGCUAGUGAUGUUAGAAAUUCUCAGGUAGGUCGCAGUAAGAAUU [V3]", "Label": "Met"}
{"Seq": "UGAUACCAGACGGCCGCCACUCCUGCAAGUCAAAGACUUGCUAAAAGGAUCGUCCAGUGAUGUUGGAGGACCGGGUCUGGUAUCU [TrypBX 19 #SwitchBubble #Palindromic #StaticStem]", "Label": "Met"}

Exam item: Does the sequence GGUAGCAUGGCGGCCGCCACUAACAACCUCACCUGCGGCUCGAUCGAGUGAUGUUCGAACGCAAUUAGGACCGGGCCAUGCUACC have recorded apparent KD of K4 kissing-loop reporter that is 300 nM or more?
Marked response: Not met

Exam item: Does the sequence AUUUUUUUGUCAGGAUAUUAGUGUGGGUUUGGUUUGUUAGUGAUGUUGAUAUUUGGUUUAUGUAUUUAAGAAGGGAUUUAGCGGU [frrvemullin] have recorded apparent KD of K4 kissing-loop reporter that is 300 nM or more?
Marked response: Met
